Record form. Attribute: Efficacy. Fill in for each entry.
# study-target: T1R2/T1R3 (Homo sapiens) (UniProt Q8TE23+Q7RTX0)
# assay-method-text: Positive allosteric modulation of human TIR2/TIR3 expressed in PEAKrapid cells assessed as potentiation of sucrose-induced intracellular calcium influx by measuring sucrose EC50 at 30 uM measured for 120 secs by fluorescence based assay relative to FEMA4774
# Assay type: functional, cell-based
# number then unit; no other words

CCCCCCCC(=O)NC(C)(C)CC(=O)Nc1cncc(C(=O)O)c1N
57%
CC(C)C[C@H](N)C(=O)NC(C)(C)CC(=O)Nc1cncc(C(=O)O)c1N
73%
CC(C)(CC(=O)Nc1cncc(C(=O)O)c1N)NC(=O)C1(c2ccccc2)CC1
54%
CC(C)C(=O)NC(C)(C)CC(=O)Nc1cncc(C(=O)O)c1N
54%
CC(C)(CC(=O)Nc1cncc(C(=O)O)c1N)NC(=O)[C@@H](N)C1CCCCC1
96%

Each of the following entries comes with a recorded value; kindly state Efficacy for each.
1. CC(C)(C)CC(=O)NC(C)(C)CC(=O)Nc1cncc(C(=O)O)c1N
2. CC(C)C[C@H](NC(=O)[C@@H](NC(=O)OC(C)(C)C)C1CCCCC1)C(=O)NC(C)(C)CC(=O)Nc1cncc(C(=O)O)c1N
3. CC(C)(CC(=O)Nc1cncc(C(=O)O)c1N)NC(=O)CCC1CCCCC1
4. CC[C@H](C)[C@H](NC(=O)[C@@H](N)C1CCCCC1)C(=O)NC(C)(C)CC(=O)Nc1cncc(C(=O)O)c1N

["64%", "85%", "65%", "76%"]

----------
# study-target: T1R2/T1R3 (Homo sapiens) (UniProt Q8TE23+Q7RTX0)
# assay-method-text: Positive allosteric modulation of human TIR2/TIR3 expressed in PEAKrapid cells assessed as potentiation of sucrose-induced intracellular calcium influx by measuring sucrose EC50 at 30 uM measured for 120 secs by fluorescence based assay relative to FEMA4774
# Type: functional, cell-based
readout-label: Efficacy (%)
One number for each entry, in %.

Here's what some known entries look like.
CCCCCCCC/C=C\CCCCCCCC(=O)NC(C)(C)CC(=O)Nc1cncc(C(=O)O)c1N
55
CC(C)(CC(=O)Nc1cncc(C(=O)O)c1N)NC(=O)[C@@H](NC(=O)[C@@H](N)C1CCCCC1)C1CCCCC1
92
CC(C)(CC(=O)Nc1cncc(C(=O)O)c1N)NC(=O)c1cccc(N)c1
56
CC(C)(CC(=O)Nc1cncc(C(=O)O)c1N)NC(=O)[C@H]1CC[C@@H](N)CC1
58

Each of the following entries comes with a recorded value; kindly state Efficacy for each.
1. CC(C)(CC(=O)Nc1cncc(C(=O)O)c1N)NC(=O)C(C)(C)C
2. CC(C)(CC(=O)Nc1cncc(C(=O)O)c1N)NC(=O)CC1CCCC1
3. CC(C)(CC(=O)Nc1cncc(C(=O)O)c1N)NC(=O)[C@@H](N)CC1CCCCC1
4. CC(C)(CC(=O)Nc1cncc(C(=O)O)c1N)NC(=O)c1ccccc1
5. CC(C)(CC(=O)Nc1cncc(C(=O)O)c1N)NC(=O)CC1CCCCC1

1: 58; 2: 79; 3: 57; 4: 50; 5: 85

Requested read-out Efficacy, target or system T1R2/T1R3 (Homo sapiens) (UniProt Q8TE23+Q7RTX0), entry CC(C)(CC(=O)Nc1cncc(C(=O)O)c1N)NC(=O)C1CCNCC1
56
